Origin of values: patent US20230302148A1

- TARGET_SYSTEM: T1, human GIP receptor (human, UniProt P48546 22-466)
- T1 sequence (looked up): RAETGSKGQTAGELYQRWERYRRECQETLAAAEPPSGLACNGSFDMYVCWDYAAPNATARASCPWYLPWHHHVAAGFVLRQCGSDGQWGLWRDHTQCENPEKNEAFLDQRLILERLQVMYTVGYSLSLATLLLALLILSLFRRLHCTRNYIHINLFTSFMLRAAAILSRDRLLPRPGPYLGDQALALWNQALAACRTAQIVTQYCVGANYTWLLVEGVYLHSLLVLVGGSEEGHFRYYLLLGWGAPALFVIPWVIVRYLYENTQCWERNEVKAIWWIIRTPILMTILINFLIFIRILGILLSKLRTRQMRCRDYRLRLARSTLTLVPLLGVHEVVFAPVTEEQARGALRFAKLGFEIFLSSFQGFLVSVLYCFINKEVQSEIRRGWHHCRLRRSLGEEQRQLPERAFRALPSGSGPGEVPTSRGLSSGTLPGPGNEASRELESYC
- PROTOCOL_DETAILS: cell-based or functional assay
Bridges are numbered along the chain shown (N, C = ends). Where no end group is shown, it is not given here. [ ]: non-standard residue; d: D form. The star is where a group is joined. Acetyl(2-(4-imidazolyl)) = O=C(Cc1c[nH]cn1)*; Aib = CC(C)(N)C(=O)O
Threshold 0.4%. In vitro activity relative to native peptide (%) vs. GIP below it: True. In vitro activity relative to native peptide (%) vs. GIP at it or above: False.

| BINDER | LABEL |
| --- | --- |
| [Acetyl(2-(4-imidazolyl))]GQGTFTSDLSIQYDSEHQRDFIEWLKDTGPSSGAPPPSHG [triple agonist of SEQ ID NO: 19] | True |
| {Acetyl(2-(4-imidazolyl))}-[Aib]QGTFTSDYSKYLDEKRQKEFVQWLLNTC (bridge 15-19) [triple agonist of SEQ ID NO: 81] | True |
| H[Aib]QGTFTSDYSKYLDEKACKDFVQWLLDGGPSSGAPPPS (bridge 16-20) [triple agonist of SEQ ID NO: 32] | False |
| H[Aib]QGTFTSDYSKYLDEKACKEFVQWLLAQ (bridge 16-20) [triple agonist of SEQ ID NO: 31] | False |
| [Acetyl(2-(4-imidazolyl))]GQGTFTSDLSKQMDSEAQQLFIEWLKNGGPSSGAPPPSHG [triple agonist of SEQ ID NO: 16] | True |
| [Acetyl(2-(4-imidazolyl))]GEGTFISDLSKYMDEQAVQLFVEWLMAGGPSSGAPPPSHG [triple agonist of SEQ ID NO: 12] | True |
| H[Aib]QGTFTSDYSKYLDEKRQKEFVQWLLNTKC (bridge 16-20) [triple agonist of SEQ ID NO: 58] | True |
| H[Aib]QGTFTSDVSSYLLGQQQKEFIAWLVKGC [triple agonist of SEQ ID NO: 4] | True |
| [Acetyl(2-(4-imidazolyl))][Aib]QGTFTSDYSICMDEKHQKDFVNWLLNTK (bridge 16-20; not fully specified) [triple agonist of SEQ ID NO: 59] | False |
| {Acetyl(2-(4-imidazolyl))}-[Aib]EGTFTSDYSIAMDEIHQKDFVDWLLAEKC (bridge 15-19) [triple agonist of SEQ ID NO: 91] | True |
| Y[Aib]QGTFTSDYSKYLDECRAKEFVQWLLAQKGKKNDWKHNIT (bridge 16-20) [triple agonist of SEQ ID NO: 23] | True |
| H[Aib]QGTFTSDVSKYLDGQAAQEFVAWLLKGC [triple agonist of SEQ ID NO: 8] | True |
| Y[Aib]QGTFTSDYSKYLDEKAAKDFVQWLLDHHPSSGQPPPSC (bridge 16-20) [triple agonist of SEQ ID NO: 77] | False |
| Y[Aib]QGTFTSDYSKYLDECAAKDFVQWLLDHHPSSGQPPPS (bridge 16-20) [triple agonist of SEQ ID NO: 67] | False |
| Y[Aib]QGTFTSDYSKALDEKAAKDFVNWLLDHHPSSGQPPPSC (lactam 16-20) [triple agonist of SEQ ID NO: 99] | False |
| {Acetyl(2-(4-imidazolyl))}-[Aib]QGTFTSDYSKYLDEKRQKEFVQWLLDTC (bridge 15-19) [triple agonist of SEQ ID NO: 82] | True |
| {Acetyl(2-(4-imidazolyl))}-[Aib]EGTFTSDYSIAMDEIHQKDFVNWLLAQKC (bridge 15-19) [triple agonist of SEQ ID NO: 90] | True |
| H[Aib]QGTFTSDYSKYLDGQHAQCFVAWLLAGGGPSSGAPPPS [triple agonist of SEQ ID NO: 39] | True |
| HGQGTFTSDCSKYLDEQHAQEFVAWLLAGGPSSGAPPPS [triple agonist of SEQ ID NO: 46] | True |
| H[Aib]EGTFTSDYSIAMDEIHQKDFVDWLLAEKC (bridge 16-20) [triple agonist of SEQ ID NO: 80] | True |
| H[Aib]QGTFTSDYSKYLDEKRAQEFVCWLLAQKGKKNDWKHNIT [triple agonist of SEQ ID NO: 28] | True |
